Reported GI50 values for the following compounds.
tested on: LOX IMVI; test: NCI tumour cell line growth inhibition, 48 h
Activity calls are given as the source filed them. Rule as the data show it: active = GI50 up to about 1.1 µM and inactive = higher.
Property: GI50

| Compound | Property | Reported |
| --- | --- | --- |
| COc1ccc2cc3c4cc(OC)c(OC)cc4ccn3c2c1 | GI50 | > 100 µM (inactive) |
| CN(NC(=O)/C(=C\c1ccco1)NC(=O)c1ccccc1)c1cn[nH]c(=O)c1Cl | GI50 | 23.2 µM (inactive) |
| O=C1/C(=N/N=C(c2ccccc2)c2ccccc2)c2ccccc2-c2ccccc21 | GI50 | 56.4 µM (inactive) |
| CC#C[C@@]1(O)CCCC[C@@H]1O | GI50 | > 100 µM (inactive) |
| C#CCN(Cc1ccc2nc(-c3ccccc3)c(Cl)nc2c1)c1ccc(Cl)c(Cl)c1 | GI50 | > 100 µM (inactive) |
| COc1ccc(-c2cc(=O)c3c(OC)c(O)c(OC)cc3o2)cc1 | GI50 | 36.9 µM (inactive) |
| CCOC(=O)/C(=C\c1ccc(F)cc1)C(C)=O | GI50 | 17.5 µM (inactive) |
| N#Cc1c(N)nc2c(C#N)c(N)cc3c2c1Oc1ccccc1-3 | GI50 | > 100 µM (inactive) |
| C=C(Nc1ccc(OC)cc1OC)C(=O)Cc1cccc[n+]1[O-] | GI50 | > 100 µM (inactive) |
| Cc1ncc([N+](=O)[O-])n1CC[N+](C)([O-])CCCCn1ccnc1[N+](=O)[O-] (stereo unspecified) | GI50 | > 100 µM (inactive) |
| Nc1nc(=O)n(C2CC(O)C(O)C(CO)O2)cc1F (stereo unspecified) | GI50 | > 100 µM (inactive) |

###

tested on: K562; assay: NCI tumour cell line growth inhibition, 48 h
The source made the active and inactive calls. No stated cut-off is given here; in the data, active = GI50 up to about 1.1 µM and inactive = higher.
Reported GI50 values follow for various molecules

| Molecule | GI50 |
| --- | --- |
| CC(NC(=O)c1ccc(OP(=O)(OCC2=CC(=O)c3ccccc3C2=O)N(C)CCCCCl)cc1)c1ccc(OCC2CCCCC2)c(C(N)=O)c1 (stereo not given) | 17.4 µM (inactive) |
| Cc1cc(O)nc(NN2C(Cl)C(=O)C2c2cccc([N+](=O)[O-])c2)n1 (stereo not given) | 18.3 µM (inactive) |
| Cc1c(C)c2ccc3oc4ccccc4c3c2oc1=O | > 100 µM (inactive) |
| CCOC(=O)c1nc2ccccc2n(CC)c1=O | > 100 µM (inactive) |
| C[n+]1c2ccccc2c(/C=N\NS(=O)(=O)c2ccc(Cl)cc2)c2ccccc21 | 17.7 µM (inactive) |
| COc1ccc(/C=C(\C#N)c2nc(-c3cc4ccccc4oc3=O)cs2)cc1 | 58.5 µM (inactive) |
| COC(=O)[C@]12CC[C@H]3CN(C(=O)OCc4ccccc4)[C@H]([C@H]31)[C@H](c1ccco1)N2 | 30.4 µM (inactive) |
| CN1CCN=C1c1nnn(-c2ccc([N+](=O)[O-])cc2)c1-c1ccccc1 | 33.7 µM (inactive) |
| COc1cc(CNNC(N)=S)cc(OC)c1OC | > 100 µM (inactive) |
| O=C1C=C(Br)c2c(-c3ccccc3)oc3cccc1c23 | > 50.9 µM (inactive) |

###

The entries below come with measured GI50 values attached.
system: DMS-273; test: NCI tumour cell line growth inhibition, 48 h
The source made the active and inactive calls. Rule as the data show it: active = GI50 up to about 1.1 µM and inactive = higher.

| Compound | GI50 |
| --- | --- |
| Cc1cccc(C)c1NC(=O)C(=O)C1C(=O)N(c2ccccc2)N=C1N (stereo not given) | > 100 µM (inactive) |
| O=C1/C(=C/c2ccccc2)CCC/C1=C\c1ccccc1 | 8.04 µM (inactive) |
| Cc1c2cc[n+](C)cc2c(C)c2c1[nH]c1ccc(Cl)cc12 | 1.76 µM (inactive) |
| Cc1ccc(/C=C/C(=O)c2sc(-n3nc(-c4ccccc4)cc3-c3ccccc3)nc2C)cc1 | > 100 µM (inactive) |
| C=C(Br)N(CC)CC | > 100 µM (inactive) |
